Recorded values, source ChEMBL document CHEMBL1201862.

# Tested on: OVCAR-3
# Assay protocol: NCI tumour cell line growth inhibition, 48 h
The source made the active and inactive calls. No stated cut-off is given here; in the data, active = GI50 up to about 1.1 µM and inactive = higher.
Give measured GI50 for each item. Keep answers brief.

Item CN1C(=O)C(O)C[C@@H]1c1ccccc1 (stereo partly specified) has what recorded GI50? > 100 µM (inactive)

Would you kindly share the measured GI50 for O=[N+]([O-])c1ccc(N2N=C(c3ccc4ccccc4c3O)CC2c2ccc(Cl)cc2Cl)c([N+](=O)[O-])c1 (stereo unspecified) ? 33.7 µM (inactive)

Item O=C(c1cc(Cl)cc(Cl)c1)N(C(=S)OC12CC3CC(CC(C3)C1)C2)c1ccccc1 has what recorded GI50? 45.3 µM (inactive)

Requested read-out: GI50. Entry: CN1C(=O)N(c2ccccc2)C2(CCN(CC3COc4ccccc4O3)CC2)C1=O (stereo unspecified) 19.8 µM (inactive)

What value of GI50 has been reported for the following compound? O=C(N/N=C(COc1ccccc1)\N=C\c1ccncc1)c1ccncc1 > 100 µM (inactive)

Data request, read-out GI50, for O=C1CCN2CCC(=O)c3c2c(cc2ccccc32)N1 > 100 µM (inactive)

Look up GI50 for this compound: O=C(/C=C/c1ccc(O)cc1)c1cc(-c2cc(CCC(=O)c3ccc(O)cc3O)ccc2O)c(O)cc1O 14.1 µM (inactive)

Bench note: what GI50 did O=C(CSc1nc2ccc(I)cc2c(=O)n1Cc1ccccc1)Nc1ccccc1 show? 10.8 µM (inactive)

Entry CCOC(=O)C1(C(=O)OCC)OC(C)=NC1(C(=O)OC)C(=O)OC has what GI50? > 75.3 µM (inactive)

Entry O=c1nc(N2CCNCC2)oc2cc(Cl)oc(=O)c12 : reported GI50 = ? 4.06 µM (inactive)

Dear colleague, I am looking for the recorded GI50 of the following compound: Cc1ccc(C(=O)/C=C2\Nc3cccnc3NC2=O)cc1 > 100 µM (inactive)

Fill blank: measured GI50 of the compound CC(C(=O)O)c1cnn(-c2ccccc2)c1-n1cccc1 (stereo unspecified) is ____. > 63.7 µM (inactive)

For COc1ccc(N2C(=O)C3c4[nH]c5c(C)cccc5c4C4CCC(c5ccccc5)CC4C3C2=O)cc1 (stereo unspecified) , what is its reported GI50? 24.8 µM (inactive)

// lookup GI50 for COc1ccc(/C=C2\CCC(C)C3=C(c4ccc(OC)c(OC)c4)C(C#N)=C(N)OC32)cc1OC (stereo unspecified) 3.58 µM (inactive)

Which value of GI50 has been reported for CC(=O)c1ccc(Oc2ccc(/C(C)=N\N=C(N)N)cc2)cc1 in the records? 1.99 µM (inactive)

Item COC(=O)CCCCCOS(=O)(=O)c1ccc(C)cc1 has what recorded GI50? > 100 µM (inactive)

Query (compound): O=C1C2Cc3ccccc3CN2C(=O)N1CCN1CCCC1 (stereo unspecified) ; field requested: GI50 > 100 µM (inactive)

# GI50 lookup, item OCC(O)COc1ccc(Br)cc1 (stereo unspecified) > 100 µM (inactive)

If you can, please state the reported GI50 value of CC(=O)NC1C(OC2C(CO)OC(OCC3OC(n4ccc(N)nc4=O)C(O)C3O)C(NC(C)=O)C2O)OC(CO)C(O)C1O (stereo unspecified) . > 100 µM (inactive)

Would you kindly share the measured GI50 for CN(C)CCOc1ccc([N+](=O)[O-])c2cccnc12 ? > 100 µM (inactive)

Bench note: what GI50 did [N-]=[N+]=Nc1cccc(-c2nnc(Cl)cc2O)c1 show? > 100 µM (inactive)

GI50 lookup needed for COc1ccc(C(=C[N+](=O)[O-])c2ccc(OC)cc2)cc1 , thanks. 14.1 µM (inactive)

Item under review: CC(=O)O[C@H]1CC[C@@]2(C)C(=CC[C@@H]3[C@@H]2CC[C@]2(C)NC(=O)/C(=C\c4ccccc4)C[C@@H]32)C1 . Reported GI50? 12.9 µM (inactive)

Item under review: N#Cc1sc2c(c1OC(=O)c1cccs1)c(=O)n(-c1ccccc1)c(=S)n2-c1ccccc1 . Reported GI50? 31.1 µM (inactive)

Suppose we examine the compound COc1cc(/C=C/C(=N\NC(=O)c2ccccc2)c2sc(Nc3ccc(Cl)c(Cl)c3)nc2C)ccc1O ; what GI50 value has been reported? 30.3 µM (inactive)

State the recorded GI50 for this entry: CSC1=N/C(=C\c2ccccc2)C(=O)N1CN1CCOCC1 > 100 µM (inactive)

Return reported GI50; argument: O=c1nc2n(CCO)c(-c3ccccc3)c(-c3ccccc3)nc-2c(=O)[nH]1 > 100 µM (inactive)

Look up GI50: CCOP(=O)(OCC)C(Nc1ccc(F)cc1)c1cccc([N+](=O)[O-])c1 (stereo unspecified) > 100 µM (inactive)

Value lookup for GI50; key = O=C1CCC[C@]2(CCC[C@@H](O)C2)N1 > 100 µM (inactive)

Fill in the blank: the reported GI50 of CN1/C(=N\c2ccccc2)S/C1=N/c1ccccc1 is ____. 34.1 µM (inactive)

So what's the measured GI50 for this one? O=C1C(Cl)=C(Cl)C(=O)C2=C1C1c3ccccc3C2c2ccccc21 36.1 µM (inactive)

Param item = CCN(CC)CCC(=O)N1C/C(=C/c2ccccc2)C(=O)/C(=C\c2ccccc2)C1 ; retrieve measured GI50. 3.06 µM (inactive)

Dear colleague, I am looking for the recorded GI50 of the following compound: COc1cc(O)c2c(O)c3c(=O)oc(C)cc3c(OC)c2c1 [PAEPALANTINE] 27.2 µM (inactive)

Find the recorded GI50 belonging to O=C(CCCn1ccnc1[N+](=O)[O-])NCCn1ccnc1[N+](=O)[O-] and report it. > 100 µM (inactive)

Given the compound CC[C@]12C=CCN3CC[C@@]4(c5cc(Br)c(OC)cc5N(C)[C@H]4[C@@](O)(C(=O)N[C@@H](Cc4ccc(O)cc4)C(=O)OC)[C@@H]1O)[C@@H]32 , what is its reported GI50? 25.6 µM (inactive)

I'd like to know its GI50. The compound in question is CCOP(=O)(OCC)C(Cc1ccccc1)N=C(c1ccccc1)c1ccccc1 (stereo unspecified) 14.5 µM (inactive)

Field request: GI50 | item: O=S(=O)(c1cc(Cl)ccc1Cl)N1CCN(c2cccc(Cl)c2)CC1 > 100 µM (inactive)

I am curious: what GI50 value has been reported for C[C@@H](CCO)OC1OC(COC(=O)C(C)(C)C)C(OC(=O)C(C)(C)C)C(OC(=O)C(C)(C)C)C1OC(=O)C(C)(C)C (stereo partly specified) ? 86.7 µM (inactive)

// lookup GI50 for COc1ccc(/C=C/CO)cc1OC > 100 µM (inactive)

Recorded GI50 of Cc1ccc2c(c1C)C(=O)C1(C2)Cc2ccc3c(c2C1=O)CCC3 (stereo unspecified) , please. > 100 µM (inactive)

Give its GI50 value. Item: CCOC(=O)N1CCC2(CC1)CC(=O)N(Nc1ccccc1)C2=O > 100 µM (inactive)
